Molecular target: human VR1 (Homo sapiens, UniProt Q8NER1)
Construct: expressed in transfected cells
Sequence (Q8NER1 whole entry): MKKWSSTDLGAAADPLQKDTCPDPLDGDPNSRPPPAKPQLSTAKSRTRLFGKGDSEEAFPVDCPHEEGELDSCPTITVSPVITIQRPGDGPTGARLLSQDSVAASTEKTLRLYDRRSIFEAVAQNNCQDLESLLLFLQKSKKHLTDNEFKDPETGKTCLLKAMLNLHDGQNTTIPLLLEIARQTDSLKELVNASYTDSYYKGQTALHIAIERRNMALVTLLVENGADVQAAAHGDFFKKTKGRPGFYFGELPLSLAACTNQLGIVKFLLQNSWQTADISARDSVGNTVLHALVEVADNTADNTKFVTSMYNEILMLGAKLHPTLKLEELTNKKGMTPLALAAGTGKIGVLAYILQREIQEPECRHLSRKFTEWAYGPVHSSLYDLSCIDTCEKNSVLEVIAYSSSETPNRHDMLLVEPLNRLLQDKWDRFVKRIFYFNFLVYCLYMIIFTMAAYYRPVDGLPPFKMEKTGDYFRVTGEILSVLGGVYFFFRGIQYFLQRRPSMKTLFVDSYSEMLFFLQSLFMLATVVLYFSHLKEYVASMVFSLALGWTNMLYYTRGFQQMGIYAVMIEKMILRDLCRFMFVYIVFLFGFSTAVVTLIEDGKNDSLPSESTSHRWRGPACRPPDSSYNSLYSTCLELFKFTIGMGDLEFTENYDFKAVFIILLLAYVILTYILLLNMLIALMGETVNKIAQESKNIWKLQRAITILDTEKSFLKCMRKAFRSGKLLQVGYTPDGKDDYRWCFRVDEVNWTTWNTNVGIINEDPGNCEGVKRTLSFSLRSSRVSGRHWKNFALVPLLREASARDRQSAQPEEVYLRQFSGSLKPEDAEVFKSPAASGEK
Experiment: Capsaicin-induced Ca2+ influx in the human VR1-transfected CHO cell line (Assay 1)
Type: cell-based
Conditions: human VR1-CHOluc9aeq cells, 10 nM capsaicin; compound purity about 40 to 90%; read-out: hVR1 class
pIC50: −log10 of the molar value.
Record form. Attribute: pIC50. Fill in for each entry.

# query: pIC50 | item Nc1ccc2c(c1)C(NC(=O)Nc1ccc(Cl)c(C(F)(F)F)c1)CCC2 (stereo not drawn) [Example 96] | system: human VR1 (Homo sapiens, UniProt Q8NER1)
6.00 to 6.30

Then COc1cccc(NC(=O)N2CCc3cc(OC)c(OC)cc3C2)c1 [Example 22] ?
6.00 to 6.30

What would you report for COc1cc(CNC(=O)Nc2ccccc2F)ccc1O [Example 75] ?
6.30 to 7.00

Also CN(C)c1ccc(-c2cccc(NC(=O)Nc3ccccc3CCO)c2)cc1 [Example 170] ?
> 7.00

// next record COCOc1cccc(CNC(=O)Nc2cccc(SC)c2)c1 [Example 26]
6.00 to 6.30

COc1cc(CNC(=O)Nc2ccc(Cl)c([N+](=O)[O-])c2)ccc1O [Example 64] ?
6.30 to 7.00

What would you report for CS(=O)(=O)Nc1ccc2c(c1)CN(C(=O)Nc1ccc(Cl)c(C(F)(F)F)c1)CC2 [Example 92] ?
6.30 to 7.00

And what about the compound O=C(Nc1cc(C(F)(F)F)ccc1F)Nc1ccccc1CCO [Example 189] ?
6.00 to 6.30

Proceed to COC(=O)c1ccccc1NC(=O)NCc1ccc(O)c(OC)c1 [Example 61]
6.00 to 6.30

====

Biological target: human VR1 (Homo sapiens)
Construct: expressed in transfected cells
Assay: Capsaicin-induced Ca2+ influx in the human VR1-transfected CHO cell line (Assay 1)
Assay type: cell-based
Conditions: human VR1-CHOluc9aeq cells, 10 nM capsaicin; compound purity about 40 to 90%; read-out: hVR1 class
pIC50: −log10 of the molar value.
Would you mind telling me the reported pIC50 of each entry?

Form field: pIC50 recorded for CC(=O)Nc1ccc2c(c1)C(NC(=O)Nc1ccc(Cl)c(C(F)(F)F)c1)CCC2 (stereo not shown) with human VR1 (Homo sapiens) (enter value)
6.00 to 6.30

Moving on to COc1cccc(NC(=O)NCc2ccc(F)c(F)c2)c1
6.00 to 6.30

Continue with O=C(NCc1ccc(Cl)c(Cl)c1)Nc1ccc(F)cc1
6.30 to 7.00

Continue with O=C(Nc1cccc(-c2ccccc2C(F)(F)F)c1)Nc1ccccc1CCO
> 7.00

Cool, now O=C(Nc1ccccc1F)Nc1ccccc1CCO
6.00 to 6.30

Item: Cc1ccc(NC(=O)Nc2ccccc2CCO)c(C)c1
6.00 to 6.30

Now consider O=C(Nc1ccccc1CCO)Nc1cccc2ccccc12 and answer again.
6.00 to 6.30

Again, but for O=C(Nc1ccc(Cl)cc1Cl)Nc1ccccc1CCO
6.00 to 6.30

Also need O=C(Nc1ccc2c(c1)Cc1ccccc1-2)Nc1ccccc1CCO , thanks.
> 7.00

Input COCOc1cccc(CNC(=O)Nc2ccc(F)cc2)c1
6.00 to 6.30

Can you handle COc1cc(CNC(=O)Nc2ccccc2[N+](=O)[O-])ccc1O next?
6.00 to 6.30

What do we get for O=C(Nc1cc(C(F)(F)F)ccc1Cl)Nc1ccccc1CCO ?
6.30 to 7.00

O=C(Nc1cccc(F)c1)Nc1ccccc1CCO , same question.
6.00 to 6.30

Same read-out for O=C(Nc1ccc(F)c([N+](=O)[O-])c1)Nc1ccccc1CCO ?
6.00 to 6.30

And what about the compound CNS(=O)(=O)c1ccc2c(c1)CN(C(=O)Nc1ccc(Oc3ccccc3)cc1)CC2 ?
6.00 to 6.30

Another: O=C(Nc1ccccc1CCO)Nc1ccccc1[N+](=O)[O-]
6.00 to 6.30

Also, O=C(Nc1ccc(N2CCCCC2)cc1)Nc1ccccc1CCO please.
6.00 to 6.30

Queued: COc1cc(CNC(=O)Nc2ccc(Br)cc2)ccc1O
6.30 to 7.00

# repeat for O=C(Nc1cccc(-c2cc(F)ccc2F)c1)Nc1ccccc1CCO
> 7.00

Again, but for N#Cc1cccc(-c2cccc(NC(=O)Nc3ccccc3CCO)c2)c1
> 7.00

What about this compound? O=C(NCc1ccc(F)c(F)c1)Nc1ccc(F)cc1
6.00 to 6.30

Moving on to the next compound: CCOC(=O)c1ccc(NC(=O)Nc2ccccc2CCO)cc1
6.00 to 6.30

Then this compound: O=C(Nc1cccc(-c2ccc(OCc3ccccc3)c(F)c2)c1)Nc1ccccc1CCO
> 7.00

Same thing, different compound: CN(C)CCNS(=O)(=O)c1ccc2c(c1)CN(C(=O)Nc1ccc(Cl)c(C(F)(F)F)c1)CC2
6.00 to 6.30

Check COc1cccc(NC(=O)NCc2cccc(F)c2)c1 too.
6.00 to 6.30

Next compound up: O=C(Nc1cccc(Cl)c1)Nc1ccccc1CCO
6.00 to 6.30

Now the compound COc1cc(CNC(=O)Nc2ccc(Cl)cc2)ccc1O
> 7.00

Next up: COc1cc(CNC(=O)Nc2ccccc2OC)ccc1O
6.00 to 6.30

Another compound to look at: CCOC(=O)c1ccccc1NC(=O)Nc1ccccc1CCO
6.00 to 6.30

Now consider Cc1ccc(C)c(-c2cccc(NC(=O)Nc3ccccc3CCO)c2)c1 .
> 7.00

Okay, and O=C(Nc1ccc(Cl)c(C(F)(F)F)c1)Nc1ccccc1CCO ?
> 7.00

How about CS(=O)(=O)Nc1ccc2c(c1)CN(C(=O)NCc1ccc(Br)cc1)CC2 ?
6.00 to 6.30

And Cc1cccc(NC(=O)NCc2ccc(C(F)(F)F)cc2)c1CCO ?
> 7.00

Also, O=C(Nc1cccc(OCc2ccccc2)c1)Nc1ccccc1CCO please.
> 7.00

Please answer likewise for COc1ccc(NC(=O)Nc2ccccc2CCO)cc1
6.00 to 6.30

COc1ccc(OC)c(NC(=O)Nc2ccccc2CCO)c1 , same question.
6.00 to 6.30

Input O=C(Nc1ccc(-c2ccccc2)cc1)Nc1ccccc1CCO
6.30 to 7.00

Quick one: O=C(Nc1cccc(-c2ccccc2Cl)c1)Nc1cc(C(F)(F)F)ccc1CCO
6.30 to 7.00

Now try COc1cccc(NC(=O)NCc2ccc(Cl)c(Cl)c2)c1 .
6.30 to 7.00

Check O=C(NCc1cccc(Cl)c1)Nc1ccc(F)cc1 too.
6.00 to 6.30

====

Biological target: human VR1 (Homo sapiens, UniProt Q8NER1)
Construct: expressed in transfected cells
Assay: Capsaicin-induced Ca2+ influx in the human VR1-transfected CHO cell line (Assay 1)
Assay type: cell-based
Conditions: human VR1-CHOluc9aeq cells, 10 nM capsaicin; compound purity about 40 to 90%; read-out: hVR1 class
pIC50: −log10 of the molar value.
Could you please report measured pIC50 for the items listed next?

Notebook entry, human VR1 (Homo sapiens, UniProt Q8NER1) assay: pIC50 of COc1ccccc1-c1cccc(NC(=O)Nc2ccccc2CCO)c1 = ?
6.30 to 7.00

O=C(NCc1ccccc1F)Nc1ccccc1CCO ?
6.00 to 6.30

Here is the next compound: O=C(Nc1ccc(Cl)c(C(F)(F)F)c1)Nc1cccc(Br)c1CCO
> 7.00

// repeat for O=C(NCc1ccc(F)cc1)Nc1ccccc1CCO and report
6.00 to 6.30

Okay, and O=C(Nc1ccc(Cl)c(-c2ccccc2)c1)Nc1ccccc1CCO ?
6.30 to 7.00

Continue with COc1ccc(CNC(=O)Nc2ccc(F)cc2)cc1OC
6.00 to 6.30

Same read-out for O=C(Nc1ccc(-c2ccc(F)cc2)cc1)Nc1ccccc1CCO ?
6.30 to 7.00

Also O=C(Nc1ccc2[nH]ncc2c1)Nc1ccccc1CCO ?
6.00 to 6.30

Also, O=C(Nc1ccc(Cl)c(C(F)(F)F)c1)NC1CCCc2ccc([N+](=O)[O-])cc21 (centres unmarked) please.
6.00 to 6.30

And what about the compound O=C(Nc1cc(Cl)ccc1Cl)Nc1ccccc1CCO ?
6.00 to 6.30

Field entry: COc1cccc(CNC(=O)Nc2cccc(OC)c2)c1
6.00 to 6.30

Another: O=C(NCc1cccc(O)c1)Nc1ccc(F)cc1
6.00 to 6.30

Note, next up: O=C(Nc1ccccc1CCO)Nc1cccc2cc(O)ccc12
6.00 to 6.30

Try O=C(Nc1ccc(Cl)c([N+](=O)[O-])c1)Nc1ccccc1CCO next.
6.30 to 7.00

Try the compound COc1cc(NC(=O)Nc2ccccc2CCO)cc(C(F)(F)F)c1
> 7.00

Next: Cc1ccc(Oc2ccc(NC(=O)Nc3ccccc3CCO)cc2)cc1
> 7.00

How about this compound: O=C(Nc1ccccc1CCO)Nc1cccc2c1Cc1ccccc1-2
> 7.00

What about O=C(Nc1cccc(-c2cc(Cl)cc(Cl)c2)c1)Nc1ccccc1CCO ?
> 7.00

Follow-up item: O=C(Nc1ccc2c(c1)OCO2)Nc1ccccc1CCO
6.00 to 6.30

Item: O=C(Nc1cccc(-c2cccc3ccccc23)c1)Nc1ccccc1CCO
> 7.00
